Entries and their DC50
target: PTPN2 (Homo sapiens, UniProt P17706); construct: expressed in transfected cells; host or cells: 293T (293T.109 HiBiT-PTPN2 line; parental 293T WT from ATCC); experiment: HiBiT-Degradation 293T.109 PTPN2 (Nano-Glo HiBiT Lytic Assay); type: cell-based; settings: 293T.109 (HiBiT-PTPN2) cells, 24.0 hours

What does the record list as DC50 for C[C@@H]1CC(c2ccc3c(c2)n(C)c(=O)n3C2CCC(=O)NC2=O)CCN1CC(=O)Nc1ccc2c(F)c(N3CC(=O)NS3(=O)=O)c(O)cc2c1 (stereo partly drawn) ?
10 to 50 nM

Item: Cn1c(=O)n(C2CCC(=O)NC2=O)c2ccc(C3CCN(C(=O)C(=O)Nc4ccc5c(F)c(N6CC(=O)NS6(=O)=O)c(O)cc5c4)CC3)cc21 (stereo not drawn)
10 to 50 nM

Item: Cn1c(=O)n(C2CCC(=O)NC2=O)c2ccc(C3CCN(C(=O)CNc4ccc5c(F)c(N6CC(=O)NS6(=O)=O)c(O)cc5c4)CC3)cc21 (stereo not drawn)
200 to 1000 nM

Item: Cn1nc(C2CCC(=O)NC2=O)c2ccc(C3CCN(C4CC(C(=O)Nc5ccc6c(F)c(N7CC(=O)NS7(=O)=O)c(O)cc6c5)C4)CC3(F)F)cc21 (stereo not drawn)
10 to 50 nM

Item: Cn1c(=O)n(C2CCC(=O)NC2=O)c2ccc(-c3ccc(CNCC(C)(C)CCOc4ccc5cc(O)c(N6CC(=O)NS6(=O)=O)c(F)c5c4)cc3)cc21 (stereo not drawn)
50 to 200 nM

Item: Cn1c(=O)n(C2CCC(=O)NC2=O)c2ccc(-c3cnn(CCC(=O)Nc4ccc5c(F)c(N6CC(=O)NS6(=O)=O)c(O)cc5c4)c3)cc21 (stereo not drawn)
10 to 50 nM

====

system: PTPN2; assay: HiBiT-Degradation B16F10.4 PTPN2; assay type: cell-based; conditions: B16F10.4 cells, 24.0 hours
Entries and their DC50

Field: example entries. Status: answers known.
>  <compound>
Cn1c(=O)n(C2CCC(=O)NC2=O)c2ccc(C3CCN(CCN4CC=C(c5ccc6cc(O)c(N7CC(=O)NS7(=O)=O)c(F)c6c5)CC4)CC3)cc21 (stereo not drawn)

>  <assay_system>
PTPN2

>  <DC50>
0.05 to 0.2 µM

$$$$
>  <compound>
O=C1CCC(N2Cc3c(OCC(=O)N4CCC(C(=O)NCCOc5ccc6cc(O)c(N7CC(=O)NS7(=O)=O)c(F)c6c5)CC4)cccc3C2=O)C(=O)N1 (stereo not drawn)

>  <assay_system>
PTPN2

>  <DC50>
0.2 to 1 µM

$$$$
>  <compound>
CCn1c(=O)n(C2CCC(=O)NC2=O)c2ccc(C3CCN(CC(=O)Nc4ccc5c(F)c(N6CC(=O)NS6(=O)=O)c(O)cc5c4)CC3)cc21 (stereo not drawn)

>  <assay_system>
PTPN2

>  <DC50>
0.05 to 0.2 µM

$$$$
>  <compound>
O=C1CCC(N2C(=O)c3cccc(NCc4cn(CCOCCOCCC(=O)Nc5ccc6c(F)c(N7CC(=O)NS7(=O)=O)c(O)cc6c5)nn4)c3C2=O)C(=O)N1 (stereo not drawn)

>  <assay_system>
PTPN2

>  <DC50>
≥ 1 µM

$$$$
>  <compound>
Cn1c(=O)n(C2CCC(=O)NC2=O)c2ccc(NC3CN(CC(=O)Nc4ccc5c(F)c(N6CC(=O)NS6(=O)=O)c(O)cc5c4)C3)cc21 (stereo not drawn)

>  <assay_system>
PTPN2

>  <DC50>
0.2 to 1 µM

$$$$

What does the record list as DC50 for Cn1c(=O)n(C2CCC(=O)NC2=O)c2ccc(NC3CCN(CCNc4ccc5c(F)c(N6CC(=O)NS6(=O)=O)c(O)cc5c4)CC3)cc21 (stereo not drawn) ?
≥ 1 µM

Item: Cn1c(=O)n(C2CCC(=O)NC2=O)c2ccc(N3CCN(CC(=O)Nc4ccc5c(F)c(N6CC(=O)NS6(=O)=O)c(O)cc5c4)CC3)cc21 (stereo not drawn)
0.05 to 0.2 µM

Item: Cn1c(=O)n(C2CCC(=O)NC2=O)c2ccc(N3CCC(O)(CC(=O)Nc4ccc5c(F)c(N6CC(=O)NS6(=O)=O)c(O)cc5c4)CC3)cc21 (stereo not drawn)
0.2 to 1 µM

Item: Cn1nc([C@H]2CCC(=O)NC2=O)c2ccc(N3CCC(CC(=O)Nc4ccc5c(F)c(N6CC(=O)NS6(=O)=O)c(O)cc5c4)CC3)cc21
0.05 to 0.2 µM

Item: Cn1nc(C2CCC(=O)NC2=O)c2ccc(N3CCC(CC(=O)Nc4ccc5c(F)c(N6CC(=O)NS6(=O)=O)c(O)cc5c4)CC3)cc21 (stereo not drawn)
0.05 to 0.2 µM

Item: Cn1c(=O)n(C2CCC(=O)NC2=O)c2ccc(C3CCN(CC(=O)N4CCC[C@@H](COc5ccc6cc(O)c(N7CC(=O)NS7(=O)=O)c(F)c6c5)C4)CC3)cc21 (stereo partly drawn)
0.05 to 0.2 µM

Item: O=C(CN1CC(n2cc(CNc3cccc4c3C(=O)N(C3CCC(=O)NC3=O)C4=O)nn2)C1)NCCOc1ccc2cc(O)c(N3CC(=O)NS3(=O)=O)c(F)c2c1 (stereo not drawn)
≥ 1 µM

====

test system: PTPN2; assay: HiBiT-Degradation B16F10.4 PTPN2; assay type: cell-based; details: B16F10.4 cells, 24.0 hours
readout_kind: DC50

>  <compound>
O=C(CCCCCn1cc(CNc2cccc3c2C(=O)N(C2CCC(=O)NC2=O)C3=O)nn1)NCCOc1ccc2cc(O)c(N3CC(=O)NS3(=O)=O)c(F)c2c1 (stereo not drawn)

>  <recorded_value>
≥ 1000 nM

$$$$

What does the record list as DC50 for O=C1CCC(N2Cc3c(OCc4cn(CCC(=O)Nc5ccc6c(F)c(N7CC(=O)NS7(=O)=O)c(O)cc6c5)nn4)cccc3C2=O)C(=O)N1 (stereo not drawn) ?
200 to 1000 nM

Item: Cn1c(=O)n(C2CCC(=O)NC2=O)c2ccc(C3CCN(C(=O)Cn4cc(-c5ccc6c(F)c(N7CC(=O)NS7(=O)=O)c(O)cc6c5)cn4)CC3)cc21 (stereo not drawn)
50 to 200 nM

Item: Cc1cc(CC(=O)Nc2ccc3c(F)c(N4CC(=O)NS4(=O)=O)c(O)cc3c2)ccc1Nc1ccc2c(c1)n(C)c(=O)n2C1CCC(=O)NC1=O (stereo not drawn)
10 to 50 nM

Item: Cn1nc(C2CCC(=O)NC2=O)c2ccc(C3CCN(CC(=O)NCCOc4ccc5cc(O)c(N6CC(=O)NS6(=O)=O)c(F)c5c4)CC3)cc21 (stereo not drawn)
50 to 200 nM

Item: Cn1c(=O)n(C2CCC(=O)NC2=O)c2ccc(C3CCN(C(=O)CNc4ccc5c(F)c(N6CC(=O)NS6(=O)=O)c(O)cc5c4)CC3)cc21 (stereo not drawn)
≥ 1000 nM

====

Entries and their DC50
Molecular target: PTPN2 (Homo sapiens)
Construct: expressed in transfected cells; host or cells: 293T (293T.109 HiBiT-PTPN2 line; parental 293T WT from ATCC)
Sequence (P17706 1-415): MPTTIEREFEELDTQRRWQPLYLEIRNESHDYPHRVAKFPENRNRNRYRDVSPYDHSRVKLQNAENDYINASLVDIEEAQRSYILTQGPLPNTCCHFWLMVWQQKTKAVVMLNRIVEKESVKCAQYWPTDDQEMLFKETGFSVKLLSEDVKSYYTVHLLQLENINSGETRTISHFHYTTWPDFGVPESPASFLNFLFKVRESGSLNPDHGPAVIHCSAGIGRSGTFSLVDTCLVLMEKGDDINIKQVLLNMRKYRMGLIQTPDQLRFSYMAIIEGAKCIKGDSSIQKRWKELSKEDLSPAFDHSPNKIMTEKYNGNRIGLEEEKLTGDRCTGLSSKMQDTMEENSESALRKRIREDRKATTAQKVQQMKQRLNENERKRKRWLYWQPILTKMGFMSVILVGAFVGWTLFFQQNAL
Experiment: HiBiT-Degradation 293T.109 PTPN2 (Nano-Glo HiBiT Lytic Assay)
Format: cell-based
Details: 293T.109 (HiBiT-PTPN2) cells, 24.0 hours

Under PTPN2 (Homo sapiens): DC50 value of Cn1c(=O)n(C2CCC(=O)NC2=O)c2ccc(C3CCN(CCNc4ccc5c(F)c(N6CC(=O)NS6(=O)=O)c(O)cc5c4)CC3)cc21 (centres unmarked) ?
≥ 1 µM

Item: O=C(CN1CCC(c2ccc(NC3CCC(=O)NC3=O)cc2F)CC1)NCCOc1ccc2cc(O)c(N3CC(=O)NS3(=O)=O)c(F)c2c1 (centres unmarked)
0.05 to 0.2 µM

Item: CC(C)(Nc1cccc2c1C(=O)N(C1CCC(=O)NC1=O)C2=O)c1cn(CCOCCC(=O)NCCOc2ccc3cc(O)c(N4CC(=O)NS4(=O)=O)c(F)c3c2)nn1 (centres unmarked)
≥ 1 µM

Item: Cc1cc(CC(=O)Nc2ccc3c(F)c(N4CC(=O)NS4(=O)=O)c(O)cc3c2)ccc1Nc1ccc2c(c1)n(C)c(=O)n2C1CCC(=O)NC1=O (centres unmarked)
0.01 to 0.05 µM

Item: O=C1CCC(Nc2ccc(C3CCN(CC(=O)Nc4ccc5c(F)c(N6CC(=O)NS6(=O)=O)c(O)cc5c4)CC3)cc2Oc2ccccc2)C(=O)N1 (centres unmarked)
0.2 to 1 µM

Item: Cn1c(=O)n(C2CCC(=O)NC2=O)c2ccc(-c3ccc(NCC(C)(C)CCOc4ccc5cc(O)c(N6CC(=O)NS6(=O)=O)c(F)c5c4)cc3)cc21 (centres unmarked)
0.05 to 0.2 µM

Item: Cn1c(=O)n(C2CCC(=O)NC2=O)c2ccc(C3CCN(CC(=O)N4CCC[C@@H](COc5ccc6cc(O)c(N7CC(=O)NS7(=O)=O)c(F)c6c5)C4)CC3)cc21 (some centres unmarked)
0.05 to 0.2 µM

Item: Cn1c(=O)n(C2CCC(=O)NC2=O)c2ccc(N3CCC(OCC(=O)Nc4ccc5c(F)c(N6CC(=O)NS6(=O)=O)c(O)cc5c4)CC3)cc21 (centres unmarked)
0.01 to 0.05 µM

Item: O=C(CCC1CCN(C(=O)CNc2cccc3c2C(=O)N(C2CCC(=O)NC2=O)C3=O)CC1)NCCOc1ccc2cc(O)c(N3CC(=O)NS3(=O)=O)c(F)c2c1 (centres unmarked)
0.2 to 1 µM

Item: Cn1c(=O)n(C2CCC(=O)NC2=O)c2ccc(C3CCN(CCC(=O)N4CC[C@@H](c5ccc6cc(O)c(N7CC(=O)NS7(=O)=O)c(F)c6c5)C4)CC3)cc21 (some centres unmarked)
0.01 to 0.05 µM

Item: O=C1CCC(N2C(=O)c3cccc4c(C5CCN(CC(=O)Nc6ccc7c(F)c(N8CC(=O)NS8(=O)=O)c(O)cc7c6)CC5)ccc2c34)C(=O)N1 (centres unmarked)
0.05 to 0.2 µM

Item: O=C1CCC(Nc2ccc(C3CCN(CC(=O)Nc4ccc5c(F)c(N6CC(=O)NS6(=O)=O)c(O)cc5c4)CC3(F)F)cc2)C(=O)N1 (centres unmarked)
0.2 to 1 µM

Item: Cn1c(=O)n(C2CCC(=O)NC2=O)c2ccc(-c3ccc(CC(=O)Nc4ccc5c(F)c(N6CC(=O)NS6(=O)=O)c(O)cc5c4)cc3F)cc21 (centres unmarked)
0.05 to 0.2 µM

Item: Cn1c(=O)n(C2CCC(=O)NC2=O)c2ccc(N3CCN(CCn4cc(-c5ccc6cc(O)c(N7CC(=O)NS7(=O)=O)c(F)c6c5)cn4)CC3)cc21 (centres unmarked)
0.01 to 0.05 µM

Item: Cn1c(=O)n(C2CCC(=O)NC2=O)c2ccc(C3CCN(CCS(=O)(=O)N4CC=C(c5ccc6cc(O)c(N7CC(=O)NS7(=O)=O)c(F)c6c5)C4)CC3)cc21 (centres unmarked)
0.05 to 0.2 µM

Item: Cn1c(=O)n(C2CCC(=O)NC2=O)c2ccc(C3CCN(CCC(=O)N4CC=C(c5ccc6cc(O)c(N7CC(=O)NS7(=O)=O)c(F)c6c5)C4)CC3)cc21 (centres unmarked)
0.05 to 0.2 µM

// provenance: patent US20240383886A1
